Where do the numbers come from? From patent US20080306243A1.

For each entry below, report its -log Kd value.
- study_system: HLA-A0206 molecule, which is a product of the HLA-A*0206 gene (human)
- experiment_description: flow cytometry; peptide stabilisation of empty HLA-A0206 on RA2.6 cells (TAP-deficient), stained with mAb 17A10 or 17A12

q: Please list -log Kd recorded for the binder GVLVHPQWV (modifications not checked) [SEQ ID NO 19]
a: 6.28 -log Kd

q: Given the binder DLPTQEPAL (modifications not checked) [SEQ ID NO 27] , write its reported -log Kd.
a: 5.26 -log Kd

q: Note down -log Kd recorded for WVPVVFLTL (modifications not checked) [SEQ ID NO 24]
a: 6.74 -log Kd

q: Quick one: give measured -log Kd for LVASRGRAV (modifications not checked) [SEQ ID NO 22]
a: 5.25 -log Kd
